- System: DU-145 prostate
- test_description: NCI-60 one-dose screen, 48 h
- protocol_conditions: 10 µM unless noted
This is part of a sample that, as a whole, favours compounds with a hit. Of some 83,000 tested, about 20% had one in any assay. Active and inactive are the calls of the source. Rule for the calls: active = growth percent below 10; inactive = the rest.
Entry note: the call must match one of true = active, false = inactive

Illustrative cases are given below, each with its answer.
O=C(Nc1ccncc1)C(=O)c1cn(S(=O)(=O)c2cccc(Cl)c2F)c2ccccc12: false
O=[N+]([O-])c1ccc(N=Nc2c(NNc3ccc([N+](=O)[O-])cn3)cc(S(=O)(=O)O)c3ccccc23)nc1: false
COc1ccc(-c2nc3c(c(-c4ccc(Cl)cc4)nn3-c3ccccc3)c(-c3ccc(O)cc3)c2C#N)cc1: false
CN(C)CC(=O)c1ccc2cc(Br)c3ccccc3c2c1: false
O=C(N/N=C/c1ccc([N+](=O)[O-])cc1)c1ccccc1Nc1ccnc(C(F)(F)F)c1: false
N#Cc1ccc(-c2ccc(-c3cccs3)o2)cc1F: false

Which outcome was assigned to CCSCC1CC(O)(c2ccccc2)C(c2ccccc2)C(c2ccc(F)cc2)O1 (stereo not drawn) in this test? true

Which outcome was assigned to COc1ccc2nc3ccccc3c(NCc3ccc(Cl)cc3)c2c1 in this test? false

====

Measured growth, listed per entry for reference.
- Test system: TK-10 renal
- test_description: NCI-60 one-dose screen, 48 h (100 = growth as untreated, 0 = no growth, -100 = all killed)
- protocol_conditions: 10 µM unless noted
The panel holds about 83,000 compounds, 20% with a hit somewhere; the sample as a whole holds those more often.
Report only the number, with the unit % understood.

Worked examples, 6 compounds total:
COc1ccc2[nH]cc(C3(c4c[nH]c5ccc(OC)cc45)C(=O)Nc4ccc(F)cc43)c2c1: 125
COc1ccc(Oc2nc(Nc3ccc(N4CCOCC4)cc3)ncc2NC(=O)Nc2cccc(OC)c2)cc1: 75.9
CCN1C(=O)/C(=C/N2N=C(c3ccc(Cl)cc3)CC2c2ccc(OC)cc2)SC1=S (stereo unspecified): 102
CC(=O)CC(c1ccc([N+](=O)[O-])cc1)c1c(O)c2ccccc2oc1=O (stereo unspecified): 105
CCN(CC)CCCC(C)Nc1c(-c2ccccc2)cnc2cc(Cl)ccc12 (stereo unspecified): 59.8
COc1cc(C2CC(=O)Nc3c2cnn3C)cc(OC)c1OC (stereo unspecified): 117

Consider the compound CC(C)CCSc1nc(-c2ccc(F)cc2)c(C#N)c(N2CCN(C)CC2)n1 and give its measured growth. 88.2

Consider the compound CSC1=N/C(=C\c2cccc(OCc3ccc(Cl)cc3)c2)C(=O)N1 and give its measured growth. 78.9

Consider the compound COc1cc(C2CC(c3ccc(C)cc3)=NN2C=O)ccc1Oc1nc2c(c(=O)n(C)c(=O)n2C)n1C (stereo unspecified) and give its measured growth. 113

Consider the compound CCc1onc(-c2ccc(OC)cc2)c1-c1ccccc1OCCN(CC)CC and give its measured growth. 92.2

Consider the compound O=C(CSc1nc2c(n1Nc1ccccc1)-c1ccccc1SC2)Nc1nccs1 and give its measured growth. 120

====

- Tested on: NCI-H322M lung
- test_description: NCI-60 one-dose screen, 48 h (100 = growth as untreated, 0 = no growth, -100 = all killed)
- protocol_conditions: 10 µM unless noted
Compounds without any hit were thinned out: in the full panel of roughly 83,000, 20% have a hit.
Measured growth, listed per entry for reference.
Report only the number, with the unit % understood.

O=C(N/N=C/c1ccc([N+](=O)[O-])cc1)c1ccccc1Nc1ccnc(C(F)(F)F)c1: 83.3
CS(=O)(=O)c1ccc(C(=O)Nc2ccc(Cl)c(-c3ccccn3)c2)c(Cl)c1: 52
C=CCOC(=O)C1=C(C)NC2=C(C(=O)CCC2)C1c1ccc(F)cc1 (centres undefined): 95.6
CCN(CC)CCCC(C)Nc1c(-c2ccccc2)cnc2cc(Cl)ccc12 (centres undefined): 97.4
CCN(CC)c1ccc(/C=N/NC(=O)C[N+](C)(C)C)cc1: 115

Consider the molecule COc1ccc(C(=O)O)cc1.[Ag] and give its measured growth. 102

Consider the molecule O=C(CSc1nnc(Cc2ccccc2Nc2c(Cl)cccc2Cl)n1-c1ccccc1)N1N=C(c2ccc3ccccc3c2)CC1c1ccc(Cl)cc1 (centres undefined) and give its measured growth. 90.7

Consider the molecule O=S1(=O)NCCCN1CCNc1nccc(-c2c(-c3cccc(O)c3)nc3sccn23)n1 and give its measured growth. 85.1

Consider the molecule O=C(Nc1cccc(N=Cc2c(O)ccc3ccccc23)c1)c1ccccc1 and give its measured growth. 95

====

Measured growth, listed per entry for reference.
- Test system: K-562 leukemia
- test_description: NCI-60 one-dose screen, 48 h (100 = growth as untreated, 0 = no growth, -100 = all killed)
- protocol_conditions: 10 µM unless noted
Compounds without any hit were thinned out: in the full panel of roughly 83,000, 20% have a hit.
Report only the number, with the unit % understood.

CCCCCCCC/C=C/CCCCCCCC1=NC(C)(C)CN1c1ccccc1: 65.9

Consider the molecule CCN1CCN(Cc2ccc(NC(=O)Nc3ccc(-n4ccc5c(NC(=O)c6ccccc6)nccc54)cc3)cc2C(F)(F)F)CC1 and give its measured growth. -39.2

Consider the molecule Fc1cc(-c2cnc3nonc3n2)c(Cl)cc1Cl and give its measured growth. 28.9

Consider the molecule Cc1ccncc1NC=O and give its measured growth. 107

Consider the molecule CCOC(=O)C1OC2(CCCC2)OC1C(=O)OCC (configuration not stated) and give its measured growth. 112

Consider the molecule Cc1cc(Nc2c3ccccc3nc3ccccc23)ccc1NS(C)(=O)=O and give its measured growth. 17.7

Consider the molecule Cc1c(C(N)=O)sc2ncn(CC(=O)NN=C3CCCCC3)c(=O)c12 and give its measured growth. 103

====

- Test system: BT-549 breast
- test_description: NCI-60 one-dose screen, 48 h (100 = growth as untreated, 0 = no growth, -100 = all killed)
- protocol_conditions: 10 µM unless noted
The panel holds about 83,000 compounds, 20% with a hit somewhere; the sample as a whole holds those more often. Active and inactive are the calls of the source. The calls were made as follows: active = growth percent below 10; inactive = the rest.
Measured growth, listed per entry for reference.

Worked examples, 5 compounds total:
CCN1C(=O)N(CC)C2C1NN=c1s/c(=C\c3ccco3)c(=O)n12 (configuration not stated): 53.9% (inactive)
COc1cc(C)c(Cl)cc1C1=NN(c2ccc(S(N)(=O)=O)cc2)C(/C=C/c2ccccc2)C1 (configuration not stated): 107% (inactive)
Cc1cc(N)cc(C)c1-c1c(Br)cc(N)cc1Br: 35.8% (inactive)
Clc1ccc(-c2nc(-c3cccs3)no2)cc1: 102% (inactive)
O=C1OCC2=C1C(c1ccccc1)c1cc3c(cc1N2CCO)OCO3 (configuration not stated): 43.9% (inactive)

Consider the compound c1coc(CNc2c3ccccc3nc3ccccc23)c1 and give its measured growth. 97.4% (inactive)

====

- System: HS 578T breast
- test_description: NCI-60 one-dose screen, 48 h
- protocol_conditions: 10 µM unless noted
Compounds without any hit were thinned out: in the full panel of roughly 83,000, 20% have a hit. Calls of active or inactive are those of the source. The calls were made as follows: active = growth percent below 10; inactive = the rest.
Entry note: the call must match one of Y = active, N = inactive

Illustrative cases are given below, each with its answer.
CC(=O)Nc1c(Br)cc2c(c1Br)Cc1cc(Br)ccc1-2: Y
CCN(CC)CCCC(C)Nc1c(-c2ccccc2)cnc2cc(Cl)ccc12 (stereo not given): N
Cc1cc(O)c2cc3c(O)c(O)ccc3cc2c1: N
CC(=O)Oc1c(Cl)c(Cl)c(Cl)c(Cl)c1Cl: N

Which outcome was assigned to CCOC(=O)CCN(CCC(=O)OCC)c1ccccc1 in this test? N

Which outcome was assigned to Cc1ccc(NC(=O)c2sc3nc4c(cc3c2N)C(=O)CCC4)cc1Cl in this test? N

Which outcome was assigned to Cn1c(-c2ccccc2)cc(=O)n1-c1ccccc1 in this test? N

Which outcome was assigned to Cc1ccc2c(C)c3c(ccc4ccccc43)c[n+]2c1 in this test? N

Which outcome was assigned to COc1ccccc1CNCCCN1C(=O)c2ccc3c4c(ccc(c24)C1=O)C(=O)N(CCCCNCCCN)C3=O in this test? N

Which outcome was assigned to O=C(Nc1ccc([N+](=O)[O-])cc1)c1cc2ccccc2cc1O in this test? Y

Which outcome was assigned to COc1ccc(/C=C/c2nc(NCCCN(C)C)c3ccccc3n2)cc1 in this test? N

Which outcome was assigned to CCN1C(=O)N(CC)C2C1NN=c1s/c(=C\c3ccco3)c(=O)n12 (stereo not given) in this test? N

Which outcome was assigned to COc1ccc([C@H]2c3[nH]c4ccccc4c3C[C@H]3C(=O)N(CCCCCCC(=O)NO)CC(=O)N23)cc1 in this test? N

Which outcome was assigned to CCCC(CCC)(C(N)=O)C(=O)O in this test? N

Which outcome was assigned to O=C(Nc1ccc(Br)cc1)Nc1cccc(Br)c1 in this test? N

Which outcome was assigned to C[C@@H]1CC2C3CCC4=CC(=O)C=C[C@]4(C)[C@@]3(Cl)[C@@H](O)C[C@]2(C)[C@@]1(OC(=O)c1ccco1)C(=O)CCl (stereo not given in full) in this test? N

Which outcome was assigned to C#C[C@]1(O)CC[C@H]2[C@@H]3CC=C4c5sc(-c6cccc(Br)c6)nc5CC[C@]4(C)[C@H]3CC[C@@]21C in this test? N

Which outcome was assigned to CC(=O)c1ccc(N2C(=O)c3ccc(Oc4ccccc4)cc3C2=O)cc1 in this test? N

Which outcome was assigned to COc1cc(-c2nn(C(=O)NCCN3CCN(C)CC3)cc2-c2ccncc2)ccc1Cl in this test? N

Which outcome was assigned to O=C(Nc1ccc(Br)cc1)c1ccc(Cl)c(Cl)c1 in this test? N
